- System Tested: LH release from rat pituitary cells (Rattus norvegicus, UniProt P30969)
- Sequence (P30969 whole entry): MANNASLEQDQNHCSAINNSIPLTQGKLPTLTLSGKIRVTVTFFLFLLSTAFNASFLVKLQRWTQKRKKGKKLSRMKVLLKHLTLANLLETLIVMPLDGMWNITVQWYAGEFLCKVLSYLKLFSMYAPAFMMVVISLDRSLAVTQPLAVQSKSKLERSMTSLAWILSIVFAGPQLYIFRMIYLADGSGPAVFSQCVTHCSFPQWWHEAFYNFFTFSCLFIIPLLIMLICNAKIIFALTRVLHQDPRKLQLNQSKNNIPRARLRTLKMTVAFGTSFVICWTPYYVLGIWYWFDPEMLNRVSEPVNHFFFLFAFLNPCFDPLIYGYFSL
- Experiment Notes: in vitro inhibition of LH release from rat pituitary cells (pA2)
- Type: cell-based
- Assay Conditions: pA2 = negative logarithm of antagonist concentration required to shift the response curve of the agonist leuprolide to two-fold higher concentration
Starred links: 1 amine or outer side, 2 acyl side, 3 side chain; linkers in the order of their positions; H or OH if unused. Non-standard residues stand in square brackets, D forms with d. Residues, ends and D or L forms follow the SMILES beside them. *: point of attachment. dPhe(4-Cl) = N[C@H](Cc1ccc(Cl)cc1)C(=O)O; NH(2-(2-pyridyl)ethyl) = c1ccc(CCN*)nc1; NH(CH2)10NH = C(CCCCCN[*:2])CCCCN[*:1]; d2Nal = N[C@H](Cc1ccc2ccccc2c1)C(=O)O; NMeY = CN[C@@H](Cc1ccc(O)cc1)C(=O)O; NHCH2(2-pyridyl) = c1ccc(CN*)nc1; d3Pal = N[C@H](Cc1cccnc1)C(=O)O; NHPhenethyl = c1ccc(CCN*)cc1; Nicotinoyl = O=C(c1cccnc1)*; NH(CH2)5NH2 = NCCCCCN*; X13 = C(CN*)CN1CCOCC1; X5 = C1CN2CCC1C(N*)C2; NH(CH2)3NH2 = NCCCN*; NH(CH2)4OH = OCCCCN*; X2 = N=C(N)NCCN*; NEt2 = CCN(CC)*
Measurement Type: LHRH antagonist potency (pA2)

>  <Compound>
CC(=O)N[C@H](Cc1ccc2ccccc2c1)C(=O)N[C@H](Cc1ccc(Cl)cc1)C(=O)N[C@H](Cc1cccnc1)C(=O)N[C@@H](CO)C(=O)N(C)[C@@H](Cc1ccc(O)cc1)C(=O)N[C@H](CCCCNC(=O)c1cccnc1)C(=O)N[C@@H](CC(C)C)C(=O)NCCCN1CCOCC1 [Example 31] (Ac-[d2Nal][dPhe(4-Cl)][d3Pal]S[NMeY][dK](Nicotinoyl)L-X13)

>  <System Tested>
LH release from rat pituitary cells (Rattus norvegicus, UniProt P30969)

>  <Measurement Type>
LHRH antagonist potency (pA2)

>  <Test Result>
9.30

$$$$
>  <Compound>
CCN(CC)C(=O)[C@H](CC(C)C)NC(=O)[C@@H](CCCCNC(=O)c1cccnc1)NC(=O)[C@H](Cc1ccc(O)cc1)N(C)C(=O)[C@H](CO)NC(=O)[C@@H](Cc1cccnc1)NC(=O)[C@@H](Cc1ccc(Cl)cc1)NC(=O)[C@@H](Cc1ccc2ccccc2c1)NC(C)=O [Example 4] (Ac-[d2Nal][dPhe(4-Cl)][d3Pal]S[NMeY][dK](Nicotinoyl)L-NEt2)

>  <System Tested>
LH release from rat pituitary cells (Rattus norvegicus, UniProt P30969)

>  <Measurement Type>
LHRH antagonist potency (pA2)

>  <Test Result>
7.96

$$$$
>  <Compound>
CC(=O)N[C@H](Cc1ccc2ccccc2c1)C(=O)N[C@H](Cc1ccc(Cl)cc1)C(=O)N[C@H](Cc1cccnc1)C(=O)N[C@@H](CO)C(=O)N(C)[C@@H](Cc1ccc(O)cc1)C(=O)N[C@H](CCCCNC(=O)c1cccnc1)C(=O)N[C@@H](CC(C)C)C(=O)NCCCCCCCCCCN [Example 17] (Ac-[d2Nal][dPhe(4-Cl)][d3Pal]S[NMeY][dK](Nicotinoyl)L-{NH(CH2)10NH})

>  <System Tested>
LH release from rat pituitary cells (Rattus norvegicus, UniProt P30969)

>  <Measurement Type>
LHRH antagonist potency (pA2)

>  <Test Result>
7.63

$$$$
>  <Compound>
CC(=O)N[C@H](Cc1ccc2ccccc2c1)C(=O)N[C@H](Cc1ccc(Cl)cc1)C(=O)N[C@H](Cc1cccnc1)C(=O)N[C@@H](CO)C(=O)N(C)[C@@H](Cc1ccc(O)cc1)C(=O)N[C@H](CCCCNC(=O)c1cccnc1)C(=O)N[C@@H](CC(C)C)C(=O)NCCCCCN [Example 13] (Ac-[d2Nal][dPhe(4-Cl)][d3Pal]S[NMeY][dK](Nicotinoyl)L-{NH(CH2)5NH2})

>  <System Tested>
LH release from rat pituitary cells (Rattus norvegicus, UniProt P30969)

>  <Measurement Type>
LHRH antagonist potency (pA2)

>  <Test Result>
9.30

$$$$
>  <Compound>
CC(=O)N[C@H](Cc1ccc2ccccc2c1)C(=O)N[C@H](Cc1ccc(Cl)cc1)C(=O)N[C@H](Cc1cccnc1)C(=O)N[C@@H](CO)C(=O)N(C)[C@@H](Cc1ccc(O)cc1)C(=O)N[C@H](CCCCNC(=O)c1cccnc1)C(=O)N[C@@H](CC(C)C)C(=O)NC1CN2CCC1CC2 (stereo partly drawn) [Example 25] (Ac-[d2Nal][dPhe(4-Cl)][d3Pal]S[NMeY][dK](Nicotinoyl)L-X5)

>  <System Tested>
LH release from rat pituitary cells (Rattus norvegicus, UniProt P30969)

>  <Measurement Type>
LHRH antagonist potency (pA2)

>  <Test Result>
10.02

$$$$
>  <Compound>
CC(=O)N[C@H](Cc1ccc2ccccc2c1)C(=O)N[C@H](Cc1ccc(Cl)cc1)C(=O)N[C@H](Cc1cccnc1)C(=O)N[C@@H](CO)C(=O)N(C)[C@@H](Cc1ccc(O)cc1)C(=O)N[C@H](CCCCNC(=O)c1cccnc1)C(=O)N[C@@H](CC(C)C)C(=O)NCCNC(=N)N [Example 16] (Ac-[d2Nal][dPhe(4-Cl)][d3Pal]S[NMeY][dK](Nicotinoyl)L-X2)

>  <System Tested>
LH release from rat pituitary cells (Rattus norvegicus, UniProt P30969)

>  <Measurement Type>
LHRH antagonist potency (pA2)

>  <Test Result>
8.89

$$$$
>  <Compound>
CC(=O)N[C@H](Cc1ccc2ccccc2c1)C(=O)N[C@H](Cc1ccc(Cl)cc1)C(=O)N[C@H](Cc1cccnc1)C(=O)N[C@@H](CO)C(=O)N(C)[C@@H](Cc1ccc(O)cc1)C(=O)N[C@H](CCCCNC(=O)c1cccnc1)C(=O)N[C@@H](CC(C)C)C(=O)NCc1ccccn1 [Example 23] (Ac-[d2Nal][dPhe(4-Cl)][d3Pal]S[NMeY][dK](Nicotinoyl)L-{NHCH2(2-pyridyl)})

>  <System Tested>
LH release from rat pituitary cells (Rattus norvegicus, UniProt P30969)

>  <Measurement Type>
LHRH antagonist potency (pA2)

>  <Test Result>
9.18

$$$$
>  <Compound>
CC(=O)N[C@H](Cc1ccc2ccccc2c1)C(=O)N[C@H](Cc1ccc(Cl)cc1)C(=O)N[C@H](Cc1cccnc1)C(=O)N[C@@H](CO)C(=O)N(C)[C@@H](Cc1ccc(O)cc1)C(=O)N[C@H](CCCCNC(=O)c1cccnc1)C(=O)N[C@@H](CC(C)C)C(=O)NCCc1ccccc1 [Example 8] (Ac-[d2Nal][dPhe(4-Cl)][d3Pal]S[NMeY][dK](Nicotinoyl)L-NHPhenethyl)

>  <System Tested>
LH release from rat pituitary cells (Rattus norvegicus, UniProt P30969)

>  <Measurement Type>
LHRH antagonist potency (pA2)

>  <Test Result>
8.48

$$$$
>  <Compound>
CC(=O)N[C@H](Cc1ccc2ccccc2c1)C(=O)N[C@H](Cc1ccc(Cl)cc1)C(=O)N[C@H](Cc1cccnc1)C(=O)N[C@@H](CO)C(=O)N(C)[C@@H](Cc1ccc(O)cc1)C(=O)N[C@H](CCCCNC(=O)c1cccnc1)C(=O)N[C@@H](CC(C)C)C(=O)NCCCCO [Example 34] (Ac-[d2Nal][dPhe(4-Cl)][d3Pal]S[NMeY][dK](Nicotinoyl)L-{NH(CH2)4OH})

>  <System Tested>
LH release from rat pituitary cells (Rattus norvegicus, UniProt P30969)

>  <Measurement Type>
LHRH antagonist potency (pA2)

>  <Test Result>
8.71

$$$$
>  <Compound>
CC(=O)N[C@H](Cc1ccc2ccccc2c1)C(=O)N[C@H](Cc1ccc(Cl)cc1)C(=O)N[C@H](Cc1cccnc1)C(=O)N[C@@H](CO)C(=O)N(C)[C@@H](Cc1ccc(O)cc1)C(=O)N[C@H](CCCCNC(=O)c1cccnc1)C(=O)N[C@@H](CC(C)C)C(=O)NCCc1ccccn1 [Example 28] (Ac-[d2Nal][dPhe(4-Cl)][d3Pal]S[NMeY][dK](Nicotinoyl)L-{NH(2-(2-pyridyl)ethyl)})

>  <System Tested>
LH release from rat pituitary cells (Rattus norvegicus, UniProt P30969)

>  <Measurement Type>
LHRH antagonist potency (pA2)

>  <Test Result>
8.10

$$$$
>  <Compound>
CC(=O)N[C@H](Cc1ccc2ccccc2c1)C(=O)N[C@H](Cc1ccc(Cl)cc1)C(=O)N[C@H](Cc1cccnc1)C(=O)N[C@@H](CO)C(=O)N(C)[C@@H](Cc1ccc(O)cc1)C(=O)N[C@H](CCCCNC(=O)c1cccnc1)C(=O)N[C@@H](CC(C)C)C(=O)NCCCN [Example 15] (Ac-[d2Nal][dPhe(4-Cl)][d3Pal]S[NMeY][dK](Nicotinoyl)L-{NH(CH2)3NH2})

>  <System Tested>
LH release from rat pituitary cells (Rattus norvegicus, UniProt P30969)

>  <Measurement Type>
LHRH antagonist potency (pA2)

>  <Test Result>
8.70

$$$$
